- measurement-notes: Volatility of UV absorbers: Thermogravimetric Analysis (TGA) T-10% values
- Format: physicochemical
- reported-conditions: Thermogravimetric Analysis
- Excerpt: One approach that has been taken to reduce the loss of absorbers from polymeric substrates has been to increase their molecular weight, either by using an absorber with attached high molecular weight groups, or by adding a group which will bind two or more absorbing nuclei in the same molecule, thus increasing molecular weight. […] These materials have relatively low volatility, as measured by the high temperature required for 10% of the materials to volatilize during Thermogravimetric Analysis. […]
Consider the cut-off 300 °C. If the recorded T-10% (TGA, temperature required for 10% of the material to volatilize) is strictly smaller, the label is fulfilled; if not, the label is not fulfilled.

compound | label-value
O=C(OCCOc1ccc(C(=O)c2ccccc2)c(O)c1)OCCOc1ccc(C(=O)c2ccccc2)c(O)c1 | not fulfilled
O=C(c1ccccc1)c1ccc(OCCCCCCOc2ccc(C(=O)c3ccccc3)c(O)c2)cc1O | not fulfilled
CC(C)(C)CC(C)(C)c1ccc(O)c(-n2nc3ccccc3n2)c1 | fulfilled
CC(C)(c1ccccc1)c1cc(-n2nc3ccccc3n2)c(O)c(C(C)(C)c2ccccc2)c1 | not fulfilled
O=C(c1ccccc1)c1ccc(OCCO)cc1O [Compound B, 2-hydroxy-4-(hydroxyethoxy)benzophenone] | fulfilled
